Target: Glutamate receptor ionotropic, NMDA 2C (Rattus norvegicus, UniProt Q00961)
Sequence (Q00961 whole entry): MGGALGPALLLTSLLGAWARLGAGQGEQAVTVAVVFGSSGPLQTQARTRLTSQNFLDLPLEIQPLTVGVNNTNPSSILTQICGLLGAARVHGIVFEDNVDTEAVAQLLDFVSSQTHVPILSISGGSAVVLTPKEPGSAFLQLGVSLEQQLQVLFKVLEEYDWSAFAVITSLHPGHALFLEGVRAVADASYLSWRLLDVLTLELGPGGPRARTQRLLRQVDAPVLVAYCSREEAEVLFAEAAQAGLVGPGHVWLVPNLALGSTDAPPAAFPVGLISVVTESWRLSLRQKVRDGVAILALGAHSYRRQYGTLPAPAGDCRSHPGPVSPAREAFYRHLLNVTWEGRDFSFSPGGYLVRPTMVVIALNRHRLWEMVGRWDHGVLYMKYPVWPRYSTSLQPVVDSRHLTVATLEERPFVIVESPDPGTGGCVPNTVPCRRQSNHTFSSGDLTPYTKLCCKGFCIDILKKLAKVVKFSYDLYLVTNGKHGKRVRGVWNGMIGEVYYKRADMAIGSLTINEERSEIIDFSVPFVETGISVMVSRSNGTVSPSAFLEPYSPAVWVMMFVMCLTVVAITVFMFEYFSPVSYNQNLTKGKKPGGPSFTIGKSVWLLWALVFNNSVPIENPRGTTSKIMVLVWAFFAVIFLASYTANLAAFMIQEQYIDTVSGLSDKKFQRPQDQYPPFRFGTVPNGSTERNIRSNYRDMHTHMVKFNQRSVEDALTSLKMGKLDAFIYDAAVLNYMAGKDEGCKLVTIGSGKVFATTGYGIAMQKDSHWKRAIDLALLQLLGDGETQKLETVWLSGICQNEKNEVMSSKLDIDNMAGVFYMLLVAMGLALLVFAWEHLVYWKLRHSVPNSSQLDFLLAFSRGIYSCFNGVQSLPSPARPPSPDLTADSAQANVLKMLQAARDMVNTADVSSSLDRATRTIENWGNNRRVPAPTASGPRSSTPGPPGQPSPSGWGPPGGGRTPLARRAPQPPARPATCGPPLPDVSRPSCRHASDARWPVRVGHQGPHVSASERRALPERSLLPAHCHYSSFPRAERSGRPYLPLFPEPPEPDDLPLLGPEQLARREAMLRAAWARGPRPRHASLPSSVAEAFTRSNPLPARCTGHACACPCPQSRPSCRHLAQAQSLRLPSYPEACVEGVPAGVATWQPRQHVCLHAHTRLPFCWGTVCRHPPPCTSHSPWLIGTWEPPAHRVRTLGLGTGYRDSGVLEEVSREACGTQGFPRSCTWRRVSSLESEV
pIC50: −log10 of the molar value.
measurement-label: pIC50

- molecule: "C[C@H](C[C@H](N)C(=O)O)C(=O)O [2S,4R-4-METHYLGLUTAMATE]"
  result: "< 5.15"

Data provenance is ChEMBL document CHEMBL1128715.
